Data credit: paper PMC12416549

# ASSAY_SYSTEM: T1, TNFR1 (Homo sapiens, UniProt P19438)
# T1 chain: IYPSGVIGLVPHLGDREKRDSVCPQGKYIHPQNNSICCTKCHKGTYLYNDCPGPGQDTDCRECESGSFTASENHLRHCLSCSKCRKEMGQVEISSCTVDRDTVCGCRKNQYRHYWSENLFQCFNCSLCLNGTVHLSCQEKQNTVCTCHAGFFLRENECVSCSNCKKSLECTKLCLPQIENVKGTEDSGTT
# EXPERIMENT_DESCRIPTION: yeast display SC50
RESULT_TYPE: apparent Kd (screen)

Please review the entries below; each comes with its answer.
BINDER	RESULT_TYPE	OBS_VALUE
A98R (designed binder) MTLQELLREEALRRAEAEAFRYALELLAEKFPEQKEYLLDLAEEIESQIRSLSGVDVEDVRKFLDKEWAWVKELLAEHPAELAEVEAARAARLAELRREVEAKVAA	apparent Kd (screen)	0.653 nM
R13T (designed binder) MTLQELLREEALTRAEAEAFRYALELLAEKFPEQKEYLLDLAEEIESQIRSLSGVDVEDVRKFLDKEWAWVKELLAEHPAELAEVEAARAARLAELRAEVEAKVAA	apparent Kd (screen)	0.335 nM
L74R (designed binder) MTLQELLREEALRRAEAEAFRYALELLAEKFPEQKEYLLDLAEEIESQIRSLSGVDVEDVRKFLDKEWAWVKERLAEHPAELAEVEAARAARLAELRAEVEAKVAA	apparent Kd (screen)	12.5 nM
E73T (designed binder) MTLQELLREEALRRAEAEAFRYALELLAEKFPEQKEYLLDLAEEIESQIRSLSGVDVEDVRKFLDKEWAWVKTLLAEHPAELAEVEAARAARLAELRAEVEAKVAA	apparent Kd (screen)	0.718 nM

Note down apparent Kd (screen) recorded for A76Y (designed binder) MTLQELLREEALRRAEAEAFRYALELLAEKFPEQKEYLLDLAEEIESQIRSLSGVDVEDVRKFLDKEWAWVKELLYEHPAELAEVEAARAARLAELRAEVEAKVAA
0.539 nM

Please indicate apparent Kd (screen) recorded for E99F (designed binder) MTLQELLREEALRRAEAEAFRYALELLAEKFPEQKEYLLDLAEEIESQIRSLSGVDVEDVRKFLDKEWAWVKELLAEHPAELAEVEAARAARLAELRAFVEAKVAA
0.593 nM

For K62T (designed binder) MTLQELLREEALRRAEAEAFRYALELLAEKFPEQKEYLLDLAEEIESQIRSLSGVDVEDVRTFLDKEWAWVKELLAEHPAELAEVEAARAARLAELRAEVEAKVAA , write its apparent Kd (screen).
0.539 nM

Give the measured apparent Kd (screen) for I49Y (designed binder) MTLQELLREEALRRAEAEAFRYALELLAEKFPEQKEYLLDLAEEIESQYRSLSGVDVEDVRKFLDKEWAWVKELLAEHPAELAEVEAARAARLAELRAEVEAKVAA
2.48 nM
